# MEASUREMENT SETUP: 323.15 K; 100 kPa; Liquid; Vibrating tube method
# mass density per record follows
Provide only the numeric value, understood in kg/m3.

Examples from the recorded data:
CCCCCCCCCCCCCCCC [hexadecane] :: 752.68
CCCCCCCCCC(=O)OCC [ethyl decanoate] :: 839.69
CCCCCCCC(=O)OCC [ethyl octanoate] :: 841.06

Consider the record given below.
Item under review: CCCCCCCCCCCC(=O)OCC [ethyl dodecanoate] . Reported mass density?
838.7

---

Reported mass density by item:
# MEASUREMENT SETUP: 303.15 K; 100 kPa; Liquid; Vibrating tube method
Numeric answer only, unit kg/m3 assumed.

Recorded results for 2 compounds are shown here.
CCCCCCCC(=O)OCC [ethyl octanoate] :: 858.34
CCCCCCCCCC(=O)OCC [ethyl decanoate] :: 855.99

What does the record list as mass density for CCCCCCCCCCCC(=O)OCC [ethyl dodecanoate] ?
854.3

Which value of mass density has been reported for `CCCCCCCCCCCCCCCC` in the records?
766.51

---

viscosity by entry:
# MEASUREMENT SETUP: 313.15 K; 100 kPa; Liquid; Capillary tube (Ostwald / Ubbelohde) method
Numbers after ± are expanded uncertainties.

The examples below pair each entry with its known result.
CCCCCCCCCC(=O)OCC [ethyl decanoate] :: 1.603 ± 0.034 mPa·s
CCCCCCCCCCCCCCCC :: 2.239 ± 0.048 mPa·s
CCCCCCCC(=O)OCC [ethyl octanoate] :: 1.121 ± 0.024 mPa·s

Here's the next entry for you.
Entry CCCCCCCCCCCC(=O)OCC [ethyl dodecanoate] has what viscosity?
2.213 ± 0.047 mPa·s

---

# MEASUREMENT SETUP: 318.15 K; 100 kPa; Liquid; Vibrating tube method
Numbers after ± are expanded uncertainties.
MEASURED PROPERTY: mass density
I'd appreciate it if you included the unit after the number.

Reference set, count: 3
CCCCCCCCCCCCCCCC :: 756.14 ± 0.83 kg/m3
CCCCCCCCCCCC(=O)OCC [ethyl dodecanoate] :: 842.6 ± 0.83 kg/m3
CCCCCCCCCC(=O)OCC [ethyl decanoate] :: 843.77 ± 0.83 kg/m3

Please give the measured mass density for this molecule: CCCCCCCC(=O)OCC [ethyl octanoate]
845.39 ± 0.83 kg/m3

---

Catalogue of compounds with associated viscosity
# MEASUREMENT SETUP: 303.15 K; 100 kPa; Liquid; Capillary tube (Ostwald / Ubbelohde) method
Form entry: value (mPa·s) — number only.

Example entries and their recorded answers appear below.
CCCCCCCCCCCC(=O)OCC [ethyl dodecanoate] :: 2.704
CCCCCCCCCCCCCCCC :: 2.756
CCCCCCCC(=O)OCC [ethyl octanoate] :: 1.313

Okay, now this compound:
Report viscosity for CCCCCCCCCC(=O)OCC [ethyl decanoate] please.
1.919

---

# MEASUREMENT SETUP: 298.15 K; 100 kPa; Liquid; Vibrating tube method
± gives the expanded uncertainty stated by the source.
Reported mass density values are given for each entry in this list.

CCCCCCCCCCCC(=O)OCC [ethyl dodecanoate] :: 858.19 ± 0.83 kg/m3
CCCCCCCCCCCCCCCC [hexadecane] :: 769.92 ± 0.83 kg/m3
CCCCCCCCCC(=O)OCC [ethyl decanoate] :: 860.05 ± 0.83 kg/m3

Then there is this molecule:
Recorded mass density for CCCCCCCC(=O)OCC [ethyl octanoate] , please?
862.64 ± 0.83 kg/m3

---

# MEASUREMENT SETUP: 313.15 K; 100 kPa; Liquid; Vibrating tube method
Here the recorded mass density is given for each entry.
All answers are understood in kg/m3, so give the number only.

Would you mind telling me what mass density value was observed for CCCCCCCCCCCC(=O)OCC [ethyl dodecanoate] ?
846.5

// returns reported mass density for input CCCCCCCC(=O)OCC [ethyl octanoate]
849.72

Endpoint output: mass density of CCCCCCCCCC(=O)OCC [ethyl decanoate] . Value?
847.85

# get_value(readout='mass density', item= CCCCCCCCCCCCCCCC [hexadecane] )
759.6

---

# MEASUREMENT SETUP: 308.15 K; 100 kPa; Liquid; Vibrating tube method
Numbers after ± are expanded uncertainties.
MEASURED PROPERTY: mass density
Could you kindly put the unit after your number?

Would you please look over these solved cases?
CCCCCCCCCC(=O)OCC [ethyl decanoate] :: 851.92 ± 0.83 kg/m3
CCCCCCCCCCCCCCCC :: 763.06 ± 0.83 kg/m3
CCCCCCCC(=O)OCC [ethyl octanoate] :: 854.04 ± 0.83 kg/m3

Quick check: mass density of CCCCCCCCCCCC(=O)OCC [ethyl dodecanoate] ?
850.4 ± 0.83 kg/m3

---

# MEASUREMENT SETUP: 318.15 K; 100 kPa; Liquid; Capillary tube (Ostwald / Ubbelohde) method
MEASURED PROPERTY: viscosity (mPa·s)
Give a bare numeral; the unit mPa·s is implied.

Below: 3 molecules and their reported viscosity.
CCCCCCCCCC(=O)OCC [ethyl decanoate] :: 1.474
CCCCCCCC(=O)OCC [ethyl octanoate] :: 1.042
CCCCCCCCCCCC(=O)OCC [ethyl dodecanoate] :: 2.016

# next molecule below
viscosity for CCCCCCCCCCCCCCCC [hexadecane] ?
2.034

---

compounds and their reported viscosity
# MEASUREMENT SETUP: 298.15 K; 100 kPa; Liquid; Capillary tube (Ostwald / Ubbelohde) method
Form entry: value (mPa·s) — number only.

Please look up its viscosity: `CCCCCCCCCCCCCCCC`
3.085

GET /values?readout=viscosity&item= CCCCCCCC(=O)OCC [ethyl octanoate]
1.428

Value lookup for viscosity; key = CCCCCCCCCC(=O)OCC [ethyl decanoate]
2.115

For CCCCCCCCCCCC(=O)OCC [ethyl dodecanoate] , what is its reported viscosity?
3.015

---

Item-by-item account of viscosity
# MEASUREMENT SETUP: 323.15 K; 100 kPa; Liquid; Capillary tube (Ostwald / Ubbelohde) method
Numbers after ± are expanded uncertainties.
Please state the value followed by its unit.

Consider the reported viscosity for these compounds:
CCCCCCCCCCCCCCCC [hexadecane] :: 1.857 ± 0.04 mPa·s
CCCCCCCCCC(=O)OCC [ethyl decanoate] :: 1.362 ± 0.029 mPa·s
CCCCCCCC(=O)OCC [ethyl octanoate] :: 0.971 ± 0.021 mPa·s

Here's the next entry for you.
Looking for the measured viscosity of CCCCCCCCCCCC(=O)OCC [ethyl dodecanoate] , can you help?
1.846 ± 0.039 mPa·s

---

# MEASUREMENT SETUP: 308.15 K; 100 kPa; Liquid; Capillary tube (Ostwald / Ubbelohde) method
Each item that follows carries a reported viscosity.
Lab book: enter the figure in mPa·s, no units written.

CCCCCCCCCCCCCCCC :: 2.478
CCCCCCCC(=O)OCC [ethyl octanoate] :: 1.211
CCCCCCCCCCCC(=O)OCC [ethyl dodecanoate] :: 2.439

Field: next compound
Which viscosity value is on record for CCCCCCCCCC(=O)OCC [ethyl decanoate] ?
1.75
